System: MDA-MB-231
assayDetails: Cytotoxicity against human MDA-MB-231 cells assessed as reduction in cell viability incubated for 3 days by methylene blue staining based spectrophotometric analysis
Assay type: functional
condition: MDA-MB-231, 72 h, time 3 day
metric: CC50 (µM)

compound=C#Cc1nc(C2=C(C)/C(=N/OCc3ccccc3)CC2)cs1 boundtype== measuredresult=4.17
compound="C#Cc1nc(C2=C(C)C(O)/C(=N\\OCc3ccccc3)C2)cs1 (centres undefined)" boundtype== measuredresult=13.4
compound="CC1=C(c2csc(Br)n2)CCC1O (centres undefined)" boundtype=> measuredresult=20
compound="C#Cc1nc(C2=C(C)C(OC(=O)CCC)/C(=N/OC(=O)CCC)C2)cs1 (centres undefined)" boundtype== measuredresult=0.83
compound="C#Cc1nc(C2=C(C)C(OC(=O)CCCCCCC)/C(=N/OC(=O)CCCCCCC)C2)cs1 (centres undefined)" boundtype== measuredresult=19.1
compound=C#Cc1nc(C2=C(C)C(=O)/C(=N/OC(C)=O)C2)cs1 boundtype== measuredresult=18.5
compound=C#Cc1nc(C2=C(C)C(=O)/C(=N/O)C2)cs1 boundtype== measuredresult=8.05
compound="C#Cc1nc(C2=C(C)C(O)/C(=N/O)C2)cs1 (centres undefined)" boundtype== measuredresult=6.57
compound=CC1=C(c2csc(Br)n2)C/C(=N\OCC(=O)Nc2ccc3oc(=O)c(C)cc3c2)C1=O boundtype=> measuredresult=20
compound="C#CCCC(=O)Nc1ccc(C(=O)c2ccc(NC(=O)CO/N=C3\\CC(c4csc(C#C)n4)=C(C)C3O)cc2)cc1 (centres undefined)" boundtype== measuredresult=1.33
compound="C#Cc1nc(C2=C(C)C(OC(=O)C(C)(C)C)/C(=N\\OC(=O)C(C)(C)C)C2)cs1 (centres undefined)" boundtype== measuredresult=0.44
compound="CCN(CC)c1ccc2cc(C(=O)NC3CCC(c4csc(Br)n4)=C3C)c(=O)oc2c1 (centres undefined)" boundtype=> measuredresult=20
compound="C#Cc1nc(C2=C(C)C(NC(=O)c3cc4ccc(N(CC)CC)cc4oc3=O)CC2)cs1 (centres undefined)" boundtype== measuredresult=1.2
compound="C#Cc1nc(C2=C(C)C(OC(=O)C(c3ccccc3)c3ccccc3)/C(=N\\OC(=O)C(c3ccccc3)c3ccccc3)C2)cs1 (centres undefined)" boundtype== measuredresult=14.9
compound="C#Cc1nc(C2=C(C)C(OC(=O)c3ccccc3)/C(=N\\OC(=O)c3ccccc3)C2)cs1 (centres undefined)" boundtype== measuredresult=0.54
compound="C#Cc1nc(C2=C(C)C(OC(C)=O)/C(=N/OC(C)=O)C2)cs1 (centres undefined)" boundtype== measuredresult=0.23
compound=C#Cc1nc(C2=C(C)C(=O)NCC2)cs1 boundtype== measuredresult=9.32
compound=C#Cc1nc(C2=C(C)C(=O)/C(=N/OCC(=O)Nc3ccc4oc(=O)c(C)cc4c3)C2)cs1 boundtype=> measuredresult=20
compound="C#CCCC(=O)Nc1ccc(C(=O)c2ccc(NC(=O)CO/N=C3\\CC(c4csc(Br)n4)=C(C)C3O)cc2)cc1 (centres undefined)" boundtype=> measuredresult=20
compound="C#Cc1nc(C2=C(C)C(O)CC2)cs1 (racemic)" boundtype== measuredresult=6.28
compound="C#Cc1nc(C2=C(C)C(OC(=O)CC)/C(=N/OC(=O)CC)C2)cs1 (centres undefined)" boundtype== measuredresult=0.18
compound=COC(=O)c1ccc([C@H]2c3[nH]c4ccccc4c3C[C@H](C(=O)OC)N2C(=O)CCl)cc1 boundtype== measuredresult=0.22
compound="C#CCO/N=C1\\CC(c2csc(Br)n2)=C(C)C1O (centres undefined)" boundtype=> measuredresult=20
compound="C#CCO/N=C1\\CC(c2csc(C#C)n2)=C(C)C1O (centres undefined)" boundtype== measuredresult=2.7

---

Test system: WI-38
assayDetails: Cytotoxicity against human WI-38 cells assessed as reduction in cell viability incubated for 3 days by methylene blue staining based spectrophotometric analysis
Type: toxicity
condition: wi-38, 72 h, time 3 day
metric: CC50 (nM)

compoundstructure=COC(=O)c1ccc([C@H]2c3[nH]c4ccccc4c3C[C@H](C(=O)OC)N2C(=O)CCl)cc1 unitstring=nM measuredresult=50

---

System: MEF
assayDetails: Cytotoxicity against mouse MEF cells assessed as reduction in cell viability at 1 uM incubated for 3 days by methylene blue staining based spectrophotometric analysis
Type: toxicity
condition: 72 h, time 3 day
metric: Activity

compound="C#Cc1nc(C2=C(C)C(OC(=O)CC)/C(=N/OC(=O)CC)C2)cs1 (stereo unspecified)" measuredresult=Toxic
compound=COC(=O)c1ccc([C@H]2c3[nH]c4ccccc4c3C[C@H](C(=O)OC)N2C(=O)CCl)cc1 measuredresult=Toxic
compound="C#Cc1nc(C2=C(C)C(OC(C)=O)/C(=N/OC(C)=O)C2)cs1 (stereo unspecified)" measuredresult=Toxic
compound=C#Cc1nc(C2=C(C)/C(=N/OCc3ccccc3)CC2)cs1 measuredresult=Non-Toxic
compound="C#Cc1nc(C2=C(C)C(O)CC2)cs1 (racemic)" measuredresult=Non-Toxic
compound="C#Cc1nc(C2=C(C)C(OC(=O)CCC)/C(=N/OC(=O)CCC)C2)cs1 (stereo unspecified)" measuredresult=Toxic

---

Test system: WI-38
assayDetails: Cytotoxicity against human WI-38 cells assessed as reduction in cell viability at 1 uM incubated for 3 days by methylene blue staining based spectrophotometric analysis
Type: toxicity
condition: wi-38, 72 h, time 3 day
metric: Activity

compound="C#Cc1nc(C2=C(C)C(O)CC2)cs1 (racemic)" metric=Activity measuredresult=Non-Toxic
compound=C#Cc1nc(C2=C(C)/C(=N/OCc3ccccc3)CC2)cs1 metric=Activity measuredresult=Non-Toxic
compound="C#Cc1nc(C2=C(C)C(OC(=O)CCC)/C(=N/OC(=O)CCC)C2)cs1 (stereo unspecified)" metric=Activity measuredresult=Toxic
compound=COC(=O)c1ccc([C@H]2c3[nH]c4ccccc4c3C[C@H](C(=O)OC)N2C(=O)CCl)cc1 metric=Activity measuredresult=Toxic
compound="C#Cc1nc(C2=C(C)C(OC(C)=O)/C(=N/OC(C)=O)C2)cs1 (stereo unspecified)" metric=Activity measuredresult=Toxic
compound="C#Cc1nc(C2=C(C)C(OC(=O)CC)/C(=N/OC(=O)CC)C2)cs1 (stereo unspecified)" metric=Activity measuredresult=Toxic

---

System: NCI-H522
assayDetails: Cytotoxicity against human NCI-H522 cells assessed as reduction in cell viability incubated for 3 days by methylene blue staining based spectrophotometric analysis
Assay type: functional
condition: NCI-H522, 72 h, time 3 day
Would you mind classing the entries by CC50? Ranges: low bin = under 1 µM, mid bin = from 1 µM up to 4 µM, high bin = 4 µM and over

compound=CC1=C(c2csc(Br)n2)C/C(=N\OCC(=O)Nc2ccc3oc(=O)c(C)cc3c2)C1=O grouplabel="high bin"
compound="C#Cc1nc(C2=C(C)C(OC(=O)CCCCCCC)/C(=N/OC(=O)CCCCCCC)C2)cs1 (centres undefined)" grouplabel="high bin"
compound="C#Cc1nc(C2=C(C)C(O)/C(=N\\OCc3ccccc3)C2)cs1 (centres undefined)" grouplabel="mid bin"
compound="CC1=C(c2csc(Br)n2)CCC1O (centres undefined)" grouplabel="high bin"
compound=C#Cc1nc(C2=C(C)/C(=N/OCc3ccccc3)CC2)cs1 grouplabel="mid bin"
compound="C#Cc1nc(C2=C(C)C(OC(=O)CCC)/C(=N/OC(=O)CCC)C2)cs1 (centres undefined)" grouplabel="low bin"
compound="C#Cc1nc(C2=C(C)C(OC(=O)CC)/C(=N/OC(=O)CC)C2)cs1 (centres undefined)" grouplabel="low bin"
compound=C#Cc1nc(C2=C(C)C(=O)/C(=N/OCC(=O)Nc3ccc4oc(=O)c(C)cc4c3)C2)cs1 grouplabel="high bin"
compound=C#Cc1nc(C2=C(C)C(=O)/C(=N/O)C2)cs1 grouplabel="high bin"
compound=COC(=O)c1ccc([C@H]2c3[nH]c4ccccc4c3C[C@H](C(=O)OC)N2C(=O)CCl)cc1 grouplabel="mid bin"
compound="CCN(CC)c1ccc2cc(C(=O)NC3CCC(c4csc(Br)n4)=C3C)c(=O)oc2c1 (centres undefined)" grouplabel="high bin"
compound="C#CCCC(=O)Nc1ccc(C(=O)c2ccc(NC(=O)CO/N=C3\\CC(c4csc(Br)n4)=C(C)C3O)cc2)cc1 (centres undefined)" grouplabel="high bin"
compound="C#CCO/N=C1\\CC(c2csc(Br)n2)=C(C)C1O (centres undefined)" grouplabel="high bin"
compound="C#Cc1nc(C2=C(C)C(O)/C(=N/O)C2)cs1 (centres undefined)" grouplabel="high bin"
compound="C#Cc1nc(C2=C(C)C(OC(C)=O)/C(=N/OC(C)=O)C2)cs1 (centres undefined)" grouplabel="low bin"
compound=C#Cc1nc(C2=C(C)C(=O)NCC2)cs1 grouplabel="high bin"
compound="C#CCO/N=C1\\CC(c2csc(C#C)n2)=C(C)C1O (centres undefined)" grouplabel="mid bin"
compound="C#Cc1nc(C2=C(C)C(OC(=O)C(c3ccccc3)c3ccccc3)/C(=N\\OC(=O)C(c3ccccc3)c3ccccc3)C2)cs1 (centres undefined)" grouplabel="mid bin"
compound=C#Cc1nc(C2=C(C)C(=O)/C(=N/OC(C)=O)C2)cs1 grouplabel="high bin"

All figures here come from ChEMBL document CHEMBL5614438.
